Taken from the supplement of paper PMC10307832.

System: LCLC-97TM1
Experiment Summary: relative viability (nuclei count vs DMSO), 5 days (fraction); higher = more cells survive
Assay Setup: first compound 0.03162 µM
# relative viability annotations
Answer with a number only.

Example entries begin here.
Compound	Target	relative viability
NC(=O)Nc1cc(-c2cccc(F)c2)sc1C(=O)N[C@H]1CCCNC1 [AZD7762] + CC(=O)Nc1cccc(-n2c(=O)n(C3CC3)c(=O)c3c(Nc4ccc(I)cc4F)n(C)c(=O)c(C)c32)c1 [Trametinib] (partner 0.02 µM)	LCLC-97TM1	0.214
NC(=O)Nc1cc(-c2cccc(F)c2)sc1C(=O)N[C@H]1CCCNC1 [AZD7762] + CS(=O)(=O)CCNCc1ccc(-c2ccc3ncnc(Nc4ccc(OCc5cccc(F)c5)c(Cl)c4)c3c2)o1 [Lapatinib] (partner 2 µM)	LCLC-97TM1	1.13

Now examine the next entry.
Prompt: Please state recorded relative viability (tested on LCLC-97TM1) of NC(=O)Nc1cc(-c2cccc(F)c2)sc1C(=O)N[C@H]1CCCNC1 [AZD7762] + N=C(N)NC(=N)NCCc1ccccc1 [Phenformin] (partner 250 µM)
Completion: 0.434
